Below, each entry is listed alongside its reported folding stability dG unfold.
# EXPERIMENT SUMMARY: folding stability dG unfold from chymotrypsin proteolysis; higher = more stable
Only the number, expressed in kcal/mol, is required.

Solved entries:
SAGGWWIITIEFPNPEQIKKILEEAGWKVDIERRPNGSVTIFFPPDDVDKIKKAFPGFEINIHPIPPNSAGG [r13_261_TrROS] : 4.45
SAGGSAGGSAGAAPDGETVRITAVFVNPETQEVFVVEATINPDGELTMEVKEVFKLPEGLSAGGSAGGSAGG [r11_226_TrROS_Hall] : 2.78

Query: Could you share which folding stability dG unfold value was measured for SAGMVKIEIEKKEDGEILITITAPSEEELKKLAEELAKELAKKLGIEEIEVKVEKLENGEYKVTIRIKKSAG [r5_772_TrROS_Hall] ?
Reply: 3.09

Query: Could you share which folding stability dG unfold value was measured for SAGGSAGGSMKYTLLSTRKNPDGTELRLIEVSEDPEKAKEYLESQGAVEIEFKKNIMTVTFKSSAGGSAGGS [r20_222_JUSTAS] ?
Reply: -0.321

Query: Could you share which folding stability dG unfold value was measured for SAGGSAGGSAYELVIVGTPELALKLAKEFAEKNPESVANLKIEKITAALPVPFLSPDGIPESAGGSAGGSAG [r3_89_TrMRF] ?
Reply: 0.207

Query: Could you share which folding stability dG unfold value was measured for SAGGSAGGSAGGMKTITLTTTSPEEAEAAKEKLLKEGPNNLVITYKPPPEPYPENGPRVVSAGGSAGGSAGG [r7_261_JUSTAS] ?
Reply: 0.743

Query: Could you share which folding stability dG unfold value was measured for SETETITVEVTMPAEELANMSAEELAARLREAFPDLKITSISITVEEVEDPETGERLVRVTVTITVERVPSA [r9_1189_TrROS_Hall] ?
Reply: 3.4

Query: Could you share which folding stability dG unfold value was measured for SAGGLEIDTSDGNVKVTKVSTKTTVEKDPTNPDRYRIITSKEIKTEPVKPPDVKEGPPIGLNNPELLSAGGS [r16_395_JUSTAS] ?
Reply: 0.418

Query: Could you share which folding stability dG unfold value was measured for SAGGMAIKDVRVEGGVLYVYRGDKLVAKIEPGAAQPPVLVRFPDGTVVAVPRSVALALNPETLEFFDVSAGG [r13_802_TrMRF] ?
Reply: 1.44

Query: Could you share which folding stability dG unfold value was measured for SAGGSAGGSASEEEKPPKIKRVTINIPEEELRERFPGNPEWAENIAREAAKEGFDEVEIDINSAGGSAGGSA [r18_441_TrROS] ?
Reply: 0.942

Query: Could you share which folding stability dG unfold value was measured for SAGGMSEEVRKLAEELAKKLNIEKVEVLPDGTVRITLKNGKKIEIKVEKVEVKEVKVEVEVEEVEEESAGGS [r16_296_TrROS_Hall] ?
Reply: 4.11

Query: Could you share which folding stability dG unfold value was measured for SAMKIEIIEEKEGEIIIKIEATKEEVEELAEELKKKFPGVEVEVEYDKETKKVYIRIKFKKKPSEEELKSAG [r14_600_TrROS_Hall] ?
Reply: 3.9

====

# EXPERIMENT SUMMARY: folding stability dG unfold from trypsin proteolysis; higher = more stable
ATTRIBUTE MEASURED: folding stability dG unfold

Query: Could you share which folding stability dG unfold value was measured for SAGGSAGGWIPPEMARNIAKTLRDKGWPVEDIEVEREPNGWVTVDVDIQYPDGKKRKYPIQIPYSAGGSAGG [r6_762_TrROS] ?
Reply: -0.439 kcal/mol

Query: Could you share which folding stability dG unfold value was measured for SAGGSAGGPLPLEELRRLLESRPDYEILSVEDESPDYVVVTVRFPFPLPSDEERTLRLRLRFPLSAGGSAGG [r6_152_TrMRF] ?
Reply: 2.23 kcal/mol

Query: Could you share which folding stability dG unfold value was measured for SAGGSAGGAKPPKTVTVKVEVTNADGETQTRTVTLTNLPKDLKPGDTVTLPETGQTARIVEITPSAGGSAGG [r6_560_TrROS_Hall] ?
Reply: 3.27 kcal/mol

Query: Could you share which folding stability dG unfold value was measured for SAGYKATIIPPDGSEVTIDVKAEDLGPLVEELEKAGLKVESLEVSPDGTAVIPVTSPDGKPYLIVIDLKSAG [r5_645_TrMRF] ?
Reply: 0.418 kcal/mol

Origin of the recorded values: the supplement of paper PMC12764529
